Source: patent US4962113A

# Test system: PAF-induced hypotension
# TEST PROTOCOL: Inhibitory action on PAF-induced hypotension in rats
# Type: in vivo, rat (Sprague-Dawley)
# APPLIED CONDITIONS: Rattus norvegicus; oral, 1 mg/kg, 2 hr.; read-out: Inhibitory Rate (Lowering of Blood Pressure)
Is inhibition in vivo at 1 mg/kg at least 50%? Then 1. If not, -1.

Use the examples below as a reference point.
CCC[n+]1cc(Cl)cc(C(=O)N(CCC(=O)NCCOC(=O)N2CCc3ccccc3C2)c2ccccc2)c1 | 1
CCC[n+]1cc(Br)cc(C(=O)N(CCOC(=O)NCCOC(=O)Nc2cccc3ccccc23)c2cccc(OC)c2)c1 | -1
CCC[n+]1cc(Br)cc(C(=O)N(CCC(=O)NCCOC(=O)Nc2cccc3ccccc23)c2ccccc2)c1 | 1

Here's the next entry for you.
query: Please check the record "CCC[n+]1cc(Br)cc(C(=O)N(CCOC(=O)NCCOC(=O)N2CCc3ccccc3C2)c2ccccc2)c1" and state if its inhibition in vivo at 1 mg/kg is at or above 50%.
result: 1

###

# System: platelet aggregation (PAF)
# TEST PROTOCOL: Inhibitory action on PAF-induced rabbit platelet aggregation
# Format: cell-based
# APPLIED CONDITIONS: Oryctolagus cuniculus, 3 × 10^-7 M, read-out: inhibitory percentage (platelet aggregation)
Listed compounds paired with reported inhibition at 0.3 µM

CCC[n+]1cc(Br)cc(C(=O)N(CCOC(=O)NCCCOC(=O)Nc2cccc3ccccc23)c2ccccc2)c1 | 100%
CCC[n+]1cc(Br)cc(C(=O)N(CCOC(=O)NCCOC(=O)Nc2cccc3ccccc23)c2ccc(I)cc2)c1 | 100%

query: // Input: "CCC[n+]1cc(Br)cc(C(=O)N(CCC(=O)NCCNC(=O)c2cccc3ccccc23)c2ccccc2)c1" . Output its inhibition at 0.3 µM only.
result: 37%

###

# Tested on: PAF-induced hypotension
# TEST PROTOCOL: Inhibitory action on PAF-induced hypotension in rats
# Type: in vivo, rat (Sprague-Dawley)
# APPLIED CONDITIONS: Rattus norvegicus; oral, 1 mg/kg, 2 hr.; read-out: Inhibitory Rate (Lowering of Blood Pressure)
RECORDED METRIC: inhibition in vivo at 1 mg/kg (%)
Could you give me the number in %? Just the number is fine.

CCC[n+]1cc(Br)cc(C(=O)N(CCOC(=O)NCCOC(=O)Nc2cccc3ccccc23)c2cccc(Cl)c2)c1 [Production Example 44] | 74
CCC[n+]1cc(Br)cc(C(=O)N(CCC(=O)NCCNS(=O)(=O)c2cccc3ccccc23)c2ccccc2)c1 [Production Example 109] | 65

query: Respond only with inhibition in vivo at 1 mg/kg recorded for CCC[n+]1cc(Br)cc(C(=O)N(CCC(=O)NCCOC(=O)N2CCc3ccccc3C2)c2ccccc2)c1 [Production Example 87]
result: 76

query: Consider the compound CCC[n+]1cc(Br)cc(C(=O)N(CCC(=O)NCCNS(=O)(=O)c2ccc3ccccc3c2)c2ccccc2)c1 [Production Example 98] . State its measured inhibition in vivo at 1 mg/kg.
result: 74

query: Hello, please tell me recorded inhibition in vivo at 1 mg/kg for this one: CCC[n+]1cc(Br)cc(C(=O)N(CCOC(=O)NCCCOC(=O)Nc2cccc3ccccc23)c2ccccc2)c1 [Production Example 52]
result: 47

query: Return inhibition in vivo at 1 mg/kg (reported value) for this compound: CCC[n+]1cc(Br)cc(C(=O)N(CCC(=O)NCCNC(=O)c2cccc3ccccc23)c2ccccc2)c1 [Production Example 108]
result: 61

###

# Tested on: PAF-induced hypotension
# TEST PROTOCOL: Inhibitory action on PAF-induced hypotension in rats
# Format: in vivo, rat (Sprague-Dawley)
# APPLIED CONDITIONS: Rattus norvegicus, iv, 0.03 mg/kg, 8 hr.; read-out: Inhibitory Rate (Lowering of Blood Pressure)
Label Met for high-side inhibition in vivo at 0.03 mg/kg (at or above 40%) and Not met for low-side inhibition in vivo at 0.03 mg/kg (below it).

A selection of reference data follows.
CCC[n+]1cc(Br)cc(C(=O)N(CCOC(=O)NCCOc2cccc3ccccc23)c2ccccc2)c1 | Met
CCC[n+]1cc(Br)cc(C(=O)N(CCOC(=O)NCCOC(=O)Nc2cccc3ccccc23)c2ccccc2)c1 | Met
CCC[n+]1cc(Br)cc(C(=O)N(CCC(=O)NCCOC(=O)Nc2cccc3ccccc23)c2ccccc2)c1 | Not met
CCC[n+]1cc(Br)cc(C(=O)N(CCOC(=O)NCCOC(=O)Nc2cccc3ccccc23)c2cccc(OC)c2)c1 | Met

query: Has "CCC[n+]1cc(Br)cc(C(=O)N(CCOC(=O)NCCOC(=O)N2CCc3ccccc3C2)c2ccccc2)c1" a recorded inhibition in vivo at 0.03 mg/kg greater than or equal to 40%?
result: Not met

###

Measured inhibition at 0.3 µM of individual entries
# Tested on: platelet aggregation (PAF)
# TEST PROTOCOL: Inhibitory action on PAF-induced rabbit platelet aggregation
# Format: cell-based
# APPLIED CONDITIONS: Oryctolagus cuniculus, 3 × 10^-7 M, read-out: inhibitory percentage (platelet aggregation)
Lab book: enter the figure in %, no units written.

query: Dear colleague, please send me the reported inhibition at 0.3 µM for CCC[n+]1cc(Br)cc(C(=O)N(CCOC(=O)NCCOC(=O)Nc2cccc3ccccc23)c2cccc(Cl)c2)c1 [Production Example 44] when you can.
result: 100

query: Give a short answer stating reported inhibition at 0.3 µM for CCC[n+]1cc(Br)cc(C(=O)N(CCC(=O)NCCOC(=O)N2CCc3ccccc3C2)c2ccccc2)c1 [Production Example 87] .
result: 100

query: Read the entry CCC[n+]1cc(Br)cc(C(=O)N(CCOC(=O)NCCOC(=O)N2CCc3ccccc3C2)c2ccccc2)c1 [Production Example 77] and write its reported inhibition at 0.3 µM.
result: 100

query: Dear colleague, please send me the reported inhibition at 0.3 µM for CCC[n+]1cc(Br)cc(C(=O)N(CCC(=O)NCCOC(=O)Nc2cccc3ccccc23)c2ccccc2)c1 [Production Example 90] when you can.
result: 100

query: Provide only the value of recorded inhibition at 0.3 µM for CCN(CCOC(=O)NCCOc1cccc2ccccc12)C(=O)c1cc(Br)c[n+](CC)c1 [Production Example 15]
result: 100

query: Recall and state the measured inhibition at 0.3 µM for CCC[n+]1cc(Br)cc(C(=O)N(CCOC(=O)NCCOC(=O)Nc2cccc3ccccc23)c2ccccc2)c1 [Production Example 10] .
result: 91

query: State its inhibition at 0.3 µM for this molecule: CCC[n+]1cc(Br)cc(C(=O)N(CCOC(=O)NCCOc2cccc3ccccc23)c2ccccc2)c1 [Production Example 7]
result: 100

###

# Tested on: PAF-induced hypotension
# TEST PROTOCOL: Inhibitory action on PAF-induced hypotension in rats
# Format: in vivo, rat (Sprague-Dawley)
# APPLIED CONDITIONS: Rattus norvegicus; oral, 1 mg/kg, 6 hr.; read-out: Inhibitory Rate (Lowering of Blood Pressure)
Measured inhibition in vivo at 1 mg/kg values are reported for all entries that follow.
Field: numeric (%). Do not append units.

Some compounds with recorded inhibition in vivo at 1 mg/kg:
CCC[n+]1cc(Br)cc(C(=O)N(CCOC(=O)NCCOC(=O)Nc2cccc3ccccc23)c2cccc(Cl)c2)c1 [Production Example 44] | 68
CCC[n+]1cc(Br)cc(C(=O)N(CCOC(=O)NCCOC(=O)Nc2cccc3ccccc23)c2ccccc2)c1 [Production Example 10] | 59
CCC[n+]1cc(Br)cc(C(=O)N(CCC(=O)NCCOC(=O)Nc2cccc3ccccc23)c2ccccc2)c1 [Production Example 90] | 71

query: Name the recorded inhibition in vivo at 1 mg/kg of the item CCC[n+]1cc(Br)cc(C(=O)N(CCOC(=O)NCCOC(=O)Nc2cccc3ccccc23)c2cccc(OC)c2)c1 [Production Example 94] in your answer.
result: 50

query: Give the value of inhibition in vivo at 1 mg/kg reported for the following: CCC[n+]1cc(Cl)cc(C(=O)N(CCC(=O)NCCOC(=O)N2CCc3ccccc3C2)c2ccccc2)c1 [Production Example 88]
result: 61

query: Assign inhibition in vivo at 1 mg/kg to the following record: CCC[n+]1cc(Br)cc(C(=O)N(CCC(=O)NCCNS(=O)(=O)c2ccc3ccccc3c2)c2ccccc2)c1 [Production Example 98]
result: 70

query: Assign inhibition in vivo at 1 mg/kg to the following record: CCC[n+]1cc(Br)cc(C(=O)N(CCOC(=O)NCCCOC(=O)Nc2cccc3ccccc23)c2ccccc2)c1 [Production Example 52]
result: 51

query: Identify the reported inhibition in vivo at 1 mg/kg for the following entry. CCC[n+]1cc(Br)cc(C(=O)N(CCC(=O)NCCNS(=O)(=O)c2cccc3ccccc23)c2ccccc2)c1 [Production Example 109]
result: 54

query: Given CCC[n+]1cc(Br)cc(C(=O)N(CCC(=O)NCCOC(=O)N2CCc3ccccc3C2)c2ccccc2)c1 [Production Example 87] , respond with its inhibition in vivo at 1 mg/kg.
result: 74

query: # return recorded inhibition in vivo at 1 mg/kg for entry CCC[n+]1cc(Br)cc(C(=O)N(CCC(=O)NCCNC(=O)c2cccc3ccccc23)c2ccccc2)c1 [Production Example 108]
result: 51

query: Read the entry CCC[n+]1cc(Br)cc(C(=O)N(CCOC(=O)NCCOC(=O)N2CCc3ccccc3C2)c2ccccc2)c1 [Production Example 77] and write its reported inhibition in vivo at 1 mg/kg.
result: 66
